Literature roundup of Alpha-1A adrenergic receptor (Rattus norvegicus) data, read-out Ki.
- target-or-system: Alpha-1A adrenergic receptor (Rattus norvegicus)
- Sequence (P43140 whole entry): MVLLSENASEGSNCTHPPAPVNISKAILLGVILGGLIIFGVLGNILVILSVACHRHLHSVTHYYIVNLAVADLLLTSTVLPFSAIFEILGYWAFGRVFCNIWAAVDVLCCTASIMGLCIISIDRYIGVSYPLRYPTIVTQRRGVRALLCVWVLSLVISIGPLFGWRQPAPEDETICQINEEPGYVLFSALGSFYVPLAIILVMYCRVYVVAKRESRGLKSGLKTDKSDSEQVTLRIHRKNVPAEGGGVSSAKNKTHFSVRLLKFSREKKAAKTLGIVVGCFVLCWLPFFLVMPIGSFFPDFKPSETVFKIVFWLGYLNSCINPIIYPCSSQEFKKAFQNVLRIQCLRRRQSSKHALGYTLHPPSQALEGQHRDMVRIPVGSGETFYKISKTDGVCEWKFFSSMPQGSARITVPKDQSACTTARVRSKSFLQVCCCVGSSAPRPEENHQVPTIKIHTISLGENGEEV
Reply with just the number (in nM).

Problem: Provide the reported Ki (system: Alpha-1A adrenergic receptor (Rattus norvegicus)) for O=C(c1ccc(F)cc1)C1CCN(CCCCn2c(=O)[nH]c3ccccc3c2=O)CC1
Result: 0.45

Problem: Provide the reported Ki (system: Alpha-1A adrenergic receptor (Rattus norvegicus)) for NC(=O)c1ccc(F)c2c1CC(N(C1CCC1)C1CCC1)CO2 (centres undefined)
Result: 260

Problem: Provide the reported Ki (system: Alpha-1A adrenergic receptor (Rattus norvegicus)) for CCCN(CCC)C1CCc2cc(CS(=O)(=O)c3ccc(OC)cc3)ccc2C1 (centres undefined)
Result: 1000

Problem: Provide the reported Ki (system: Alpha-1A adrenergic receptor (Rattus norvegicus)) for Cc1ccc2nc(C)c(CCN3CCC(C(=O)c4ccc(F)cc4)CC3)c(=O)n2c1
Result: 7.9

Problem: Provide the reported Ki (system: Alpha-1A adrenergic receptor (Rattus norvegicus)) for CN(C)CCON=C(C=Cc1ccc(O)cc1)c1ccccc1F
Result: 3400

Problem: Provide the reported Ki (system: Alpha-1A adrenergic receptor (Rattus norvegicus)) for COc1cc(N)c(Cl)cc1C(=O)CCC1CCN(CCNS(C)(=O)=O)CC1
Result: 398
